Tested on: Candida albicans
method description: Antimicrobial activity against Candida albicans 7535 after 20 hrs by two-fold serial dilution technique
Format: functional
condition: Candida albicans, 7535, 20 h
Listing of recorded MIC by entry.
readout name: MIC (µg/mL)

>>> result_value("O=C1CSC(=S)N1Cc1nnc(-c2ccc(Cl)cc2)o1")
32
>>> result_value("O=C1CSC(=S)N1Cc1nnc(-c2ccccc2Cl)o1")
64
>>> result_value("O=C1CSC(=S)N1Cc1nnc(-c2ccccc2Br)o1")
64
>>> result_value("Cc1cccc(-c2nnc(CN3C(=O)CSC3=S)o2)c1")
64

---

System: Staphylococcus aureus
method description: Antimicrobial activity against Staphylococcus aureus 503 after 20 hrs by two-fold serial dilution technique
Format: functional
condition: Staphylococcus aureus, 503, 20 h
readout name: MIC

>>> result_value("O=C1CSC(=S)N1Cc1nnc(-c2ccccc2)o1")
"64 µg/mL"
>>> result_value("Cc1cccc(-c2nnc([C@H](Cc3ccccc3)N3C(=O)CSC3=S)o2)c1")
"> 64 µg/mL"
>>> result_value("Cc1cccc(-c2nnc([C@H](Cc3ccccc3)N3C(=O)/C(=C/c4ccc(C(=O)O)cc4)SC3=S)o2)c1")
"> 64 µg/mL"
